- Assay Procedure: RP-TLC lipophilicity, silica gel C18, methanol-water
- Assay type: physicochemical
- Experimental Context: RP-TLC silica gel C18, methanol-water 40 to 70% (v/v), intercept of Soczewiński–Wachtmeister equation
Recorded R M ^0, one value per entry.
Test Readout: R M ^0

>>> reported_value("CCn1cc(C(=O)O)c(=O)c2cc(F)c(N3CCNCC3)cc21 [Compound 18, reference compound]")
2.54
>>> reported_value("CCn1cc(C(=O)O)c(=O)c2cc(F)c(N3CCNC(C)C3)c(F)c21 (stereo not shown) [Compound 17, reference compound]")
2.33
>>> reported_value("COc1c(N2CC3CCC[N+]4(CN5C(=N4)C(C(=O)O)=Cc4ccccc45)C3C2)c(F)cc2c(=O)c(C(=O)O)cn(C3CC3)c12.[Cl-] (stereo not shown) [Compound 15]")
3.56
>>> reported_value("CCn1cc(C(=O)O)c(=O)c2cnc(N3CC[N+]4(CC3)CN3C(C)=CC(C)=C(C(=O)O)C3=N4)nc21.[Cl-] [Compound 10]")
1.27
>>> reported_value("CCn1cc(C(=O)O)c(=O)c2cc(F)c(N3CC[N+]4(CC3)CN3C(C)=CC(C)=C(C(=O)O)C3=N4)cc21.[Cl-] [Compound 12]")
1.75
>>> reported_value("CCn1cc(C(=O)O)c(=O)c2cnc(N3CCNCC3)nc21 [Compound 19, pipemidic acid, reference compound]")
2.39
>>> reported_value("CCn1cc(C(=O)O)c(=O)c2cc(F)c(N3CC[N+]4(CC3)CN3C(=N4)C(C(=O)O)=Cc4ccccc43)nc21.[Cl-] [Compound 7]")
1.87
